All values here come from PubChem BioAssay AID1918998.

Examples of compounds with documented viability, T/C follow.
System: 521955-158-R2-J5-PDC complex spheroid growth
Assay: Anticancer human tumor 521955-158-R2-J5-PDC patient-derived pancreatic carcinoma cell line growth inhibition [AhR]
Conditions: second compound 0.316 µM; first compound 0.000316 µM; stronger effect = lower value

Query the reported viability, T/C for 521955-158-R2-J5-PDC complex spheroid growth; item: Cn1ncnc1C1c2n[nH]c(=O)c3cc(F)cc(c23)NC1c1ccc(F)cc1 (stereo not drawn) + Cc1ccccc1N=Nc1ccc(NC(=O)c2ccnn2C)c(C)c1 111%

GET /values?readout=viability, T/C&system=521955-158-R2-J5-PDC complex spheroid growth&item= CC[C@@]1(O)C(=O)OCc2c1cc1n(c2=O)Cc2cc3c(CN(C)C)c(O)ccc3nc2-1 + CC(CO)NC(=O)c1cc(-c2ccc(Cl)cc2)nn(-c2cnn(C)c2)c1=O 112%

Record CC[C@@]1(O)C(=O)OCc2c1cc1n(c2=O)Cc2cc3c(CN(C)C)c(O)ccc3nc2-1 + Cc1cncc(-c2nc(NCCc3c[nH]c4ccccc34)c3ncn(C(C)C)c3n2)c1 : what is its viability, T/C with 521955-158-R2-J5-PDC complex spheroid growth? 113%

====

Test system: 521955-158-R2-J5-PDC complex spheroid growth
Test: Anticancer human tumor 521955-158-R2-J5-PDC cell line growth inhibition [AhR];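 as to viability, T/C: spheroids mix tumor cells with HUVEC endothelium and human MSC stroma; luminescence taken as viability surrogate after a week of drug exposure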
Details: second compound 3.16 µM; first compound 10 µM; stronger effect = lower value
recordedEndpoint: viability, T/C (%)
Write the answer as a number in %, unit excluded.

O=C(c1cc(Cc2n[nH]c(=O)c3ccccc23)ccc1F)N1CCN(C(=O)C2CC2)CC1 + Cc1cncc(-c2nc(NCCc3c[nH]c4ccccc34)c3ncn(C(C)C)c3n2)c1: 126
COc1cc(Nc2ncc3c(n2)-c2ccc(Cl)cc2C(c2c(F)cccc2OC)=NC3)ccc1C(=O)O + Cc1ccccc1N=Nc1ccc(NC(=O)c2ccnn2C)c(C)c1: 71.4
CC1COCCN1c1cc(C2(S(C)(=N)=O)CC2)nc(-c2ccnc3[nH]ccc23)n1 (stereo unspecified) + Cc1cncc(-c2nc(NCCc3c[nH]c4ccccc34)c3ncn(C(C)C)c3n2)c1: 14.5
CC(C)c1c(-c2ccccc2)nc2c(C#N)c[nH]n2c1=O + CC(CO)NC(=O)c1cc(-c2ccc(Cl)cc2)nn(-c2cnn(C)c2)c1=O: 70

May I ask what viability, T/C has been recorded for COc1cc(Nc2ncc3c(n2)-c2ccc(Cl)cc2C(c2c(F)cccc2OC)=NC3)ccc1C(=O)O + CC(CO)NC(=O)c1cc(-c2ccc(Cl)cc2)nn(-c2cnn(C)c2)c1=O ? 44.9

State the recorded viability, T/C for this entry: COc1ccc([C@@H](O)c2cc(-c3ncnc4cc(N5CCOCC5)ccc34)c(F)cc2Cl)nn1 + CC(CO)NC(=O)c1cc(-c2ccc(Cl)cc2)nn(-c2cnn(C)c2)c1=O 42.7

====

Measured pIC50 values are reported for all entries that follow.
Test system: 521955-158-R2-J5-PDC complex spheroid growth
Experiment: Anticancer human tumor 521955-158-R2-J5-PDC cell line growth inhibition [AhR]
Details: curve of first compound; second compound 0.1 µM
Text: Multicellular complex tumor spheroid response to aryl hydrocarbon receptor antagonists in combination with a variety of drugs and investigational agents in selected tumor cell lines […] Compounds. […] If the clinical Cmax for an agent had not been determined, the highest concentration tested was 10 microM (Table 1). […]
Reminder that pIC50 means the negative base-10 logarithm of the concentration expressed in mol/L.

CC1COCCN1c1cc(-c2ccnn2C)c2ccnc(-c3ccn[nH]3)c2n1 (stereo not drawn) + CC(CO)NC(=O)c1cc(-c2ccc(Cl)cc2)nn(-c2cnn(C)c2)c1=O: 7.06
CC1COCCN1c1cc(-c2ccnn2C)c2ccnc(-c3ccn[nH]3)c2n1 (stereo not drawn) + Cc1cncc(-c2nc(NCCc3c[nH]c4ccccc34)c3ncn(C(C)C)c3n2)c1: 6.94

Now examine the next entry.
Kindly state the measured pIC50 obtained for Nc1ccccc1NC(=O)c1ccc(CNC(=O)OCc2cccnc2)cc1 + Cc1cncc(-c2nc(NCCc3c[nH]c4ccccc34)c3ncn(C(C)C)c3n2)c1 with 521955-158-R2-J5-PDC complex spheroid growth. 5.26
